target: Serine/threonine-protein kinase BRSK1 (Homo sapiens); details: at 1 µM;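 note: each value is a mean percent inhibition of BRSK1 kinase activity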
propertyMeasured: inhibition (%)
Expressed in %, but write only the number.

stdin: If you can, please state the reported inhibition value of CCN(CC)Cc1ccc(Nc2nccc(-c3cnn4ncccc34)n2)cc1 .
stdout: 3.16

stdin: Could you tell me which inhibition is on file for CCc1cccc(CC)c1/C=C/c1cncc(C(=O)NC)c1 ?
stdout: 0.96

stdin: Can you share its inhibition? I mean this compound: Fc1ccc(-c2c(-c3ccncc3)nc3n2CCS3)cc1
stdout: 0.97

stdin: If you can, please state the reported inhibition value of O=C(Nc1n[nH]c2nc(-c3ccco3)ccc12)C1CC1 .
stdout: 3.49

stdin: Report inhibition for Fc1ccc(-c2nc3n(c2-c2ccncc2)CCS3)cc1 please.
stdout: 0.24

stdin: Sample O=C1NC(=O)C(c2cccc(Cl)c2)=C1Nc1ccc(Cl)c(C(=O)O)c1 — what was its inhibition?
stdout: 0.27

stdin: Quick one: inhibition for CN(C)CCCNc1nccc(-c2c(-c3ccc(F)cc3)nn3cc(C(F)(F)F)ccc23)n1 ?
stdout: 4.81

stdin: For the compound CCc1ccc(Oc2nccc(-c3c(-c4ccc(F)cc4)ncn3C3CCNCC3)n2)cc1 , what inhibition is on record?
stdout: -0.56

stdin: Tell me the measured inhibition of FC(F)(F)c1cccc(Nc2nccc(-c3cnn4nc(-c5ccccc5)ccc34)n2)c1 , please.
stdout: 4.72

stdin: GET /values?readout=inhibition&item= COc1cc(N2CCN(C(C)C)CC2)ccc1Nc1nc(Nc2ccc(F)cc2C(=O)NC[C@@H](O)CO)c2cc[nH]c2n1
stdout: 1.34

stdin: Form field: reported inhibition of CCc1nccc2c1nc(-c1nonc1N)n2CC
stdout: 4.27

stdin: Please report the recorded inhibition for NC(=O)Cc1ccccc1Oc1nccc(-c2c(-c3ccc(F)cc3)ncn2C2CCNCC2)n1 .
stdout: 6.12

stdin: Name the recorded inhibition for COc1cc(Nc2ncc3c(C)nc(-c4cccc(C(F)(F)F)c4)n3n2)cc(OC)c1OC .
stdout: 7.57

stdin: What value of inhibition has been reported for the following compound? Fc1ccc(-c2ncn(C3CCNCC3)c2-c2ccnc(Oc3ccc(Oc4ccccc4)cc3)n2)cc1
stdout: -0.07

stdin: Fill in: inhibition of C[C@@H](Oc1cc(-n2cnc3ccc(OCC4CCN(C)CC4)cc32)sc1C(N)=O)c1ccccc1Cl is ___
stdout: 60

----------
system: Mast/stem cell growth factor receptor Kit (Homo sapiens), P10721 [D816V]; conditions: at 1 µM
Sequence (P10721 whole entry D816V): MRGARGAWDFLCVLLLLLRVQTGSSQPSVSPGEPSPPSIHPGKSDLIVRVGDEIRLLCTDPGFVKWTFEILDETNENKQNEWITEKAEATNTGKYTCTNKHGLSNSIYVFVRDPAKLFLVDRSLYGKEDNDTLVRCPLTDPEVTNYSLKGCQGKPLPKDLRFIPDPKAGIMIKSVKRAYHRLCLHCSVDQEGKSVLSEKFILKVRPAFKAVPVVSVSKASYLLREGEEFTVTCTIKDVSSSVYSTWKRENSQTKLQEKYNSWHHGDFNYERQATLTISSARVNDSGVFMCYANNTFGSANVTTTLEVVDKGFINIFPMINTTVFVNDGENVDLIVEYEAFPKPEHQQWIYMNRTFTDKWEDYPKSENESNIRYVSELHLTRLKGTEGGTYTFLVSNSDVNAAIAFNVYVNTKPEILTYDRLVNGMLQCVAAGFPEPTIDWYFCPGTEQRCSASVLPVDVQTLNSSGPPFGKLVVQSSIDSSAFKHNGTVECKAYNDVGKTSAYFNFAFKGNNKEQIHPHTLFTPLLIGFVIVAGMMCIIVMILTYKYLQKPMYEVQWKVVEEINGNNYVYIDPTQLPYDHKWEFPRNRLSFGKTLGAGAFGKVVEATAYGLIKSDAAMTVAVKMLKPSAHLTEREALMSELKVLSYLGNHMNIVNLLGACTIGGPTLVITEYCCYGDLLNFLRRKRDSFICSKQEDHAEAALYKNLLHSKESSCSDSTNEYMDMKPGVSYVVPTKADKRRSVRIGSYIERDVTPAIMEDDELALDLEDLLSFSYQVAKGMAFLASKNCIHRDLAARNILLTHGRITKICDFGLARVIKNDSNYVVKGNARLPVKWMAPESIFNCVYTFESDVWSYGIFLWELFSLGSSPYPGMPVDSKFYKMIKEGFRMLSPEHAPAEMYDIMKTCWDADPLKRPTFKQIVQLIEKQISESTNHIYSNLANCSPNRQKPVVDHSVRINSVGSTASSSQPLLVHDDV
propertyMeasured: inhibition (%)
Could you give me the number in %? Just the number is fine.

stdin: Please look up its inhibition: Fc1ccc(-c2ncn(CCCN3CCOCC3)c2-c2ccncc2)cc1
stdout: -1.66

stdin: Entry FC(F)(F)c1cccc(Nc2nccc(-c3cnn4nc(-c5ccccc5)ccc34)n2)c1 has what inhibition?
stdout: 0.54

stdin: Please look up its inhibition: CS(=O)(=O)CCNCc1cc(-c2cc3c(Nc4ccc(OCc5cccc(F)c5)c(Cl)c4)ncnc3s2)cs1
stdout: 6.26

stdin: Bench note: what inhibition did Fc1ccc(-c2c(-c3ccncc3)nc3n2CCS3)cc1 show?
stdout: 4.72

stdin: Look at this compound and give its reported inhibition. O=C(Nc1n[nH]c2nc(-c3ccc(O)cc3)c(Br)cc12)C1CC1
stdout: 10.1

stdin: Record request: inhibition value, item N#Cc1ccc(Oc2nccc(-c3c(-c4ccc(F)cc4)ncn3C3CCNCC3)n2)cc1
stdout: 2.36

stdin: Any idea what inhibition was measured for CCc1ccc(Oc2nccc(-c3c(-c4ccc(F)cc4)ncn3C3CCNCC3)n2)cc1 ?
stdout: 1.86

stdin: Which inhibition reading was recorded for the compound Fc1ccc(-c2ncn(C3CCNCC3)c2-c2ccnc(Oc3ccc4c(c3)OCO4)n2)cc1 ?
stdout: 5.2

stdin: Param item = Cc1ccc(C(=O)NC2CCC2)cc1-c1ccc(C(=O)NCC2CC2)cc1 ; retrieve measured inhibition.
stdout: 1.73

stdin: Quick one: inhibition for O=C1Nc2ccc(I)cc2C1=Cc1cc(Br)c(O)c(Br)c1 ?
stdout: 2.13

stdin: Which measured inhibition value corresponds to COc1ccc(C2=C(N3CCc4ccccc43)C(=O)NC2=O)cc1 ?
stdout: 3.25

stdin: Name the reported inhibition value associated with the compound NCc1ccc(-n2c(-c3nonc3N)nc3cnccc32)cc1
stdout: 2.04

stdin: Fill in: inhibition of COC(=O)Nc1nc2ccc(Sc3ccc(NC(=O)Nc4cc(C(F)(F)F)ccc4F)cc3)cc2[nH]1 is ___
stdout: 5.31

stdin: Form field: reported inhibition of Clc1ccc(CNc2nccc(-c3cnn4ncccc34)n2)cc1
stdout: 5.08

stdin: What inhibition value was documented for this compound, Fc1ccc(-c2nc3n(c2-c2ccncc2)CCS3)cc1 ?
stdout: 1.39

stdin: What value of inhibition has been reported for the following compound? CS(=O)(=O)CCNCc1ccc(-c2ccc3ncnc(Nc4ccc(OCc5ccccc5)c(Br)c4)c3c2)o1
stdout: 2.18

stdin: # lookup: inhibition of CN1CCN(CCCNc2nc3ccc(Oc4ccc(NC(=O)Nc5cc(C(F)(F)F)ccc5F)cc4)cc3[nH]2)CC1
stdout: 0.02

stdin: Query: inhibition; subject: O=C(Nc1ccc(Oc2ccc3[nH]c(NC(=O)c4ccccc4)nc3c2)cc1)Nc1cc(C(F)(F)F)ccc1F
stdout: 4.26

stdin: // lookup inhibition for O=C(NCC1CC1)c1ccc(-c2cccc(C(=O)NC3CC3)c2)cc1
stdout: -0.44

stdin: Field request: inhibition | item: NS(=O)(=O)c1ccc(N/N=C2\C(=O)Nc3ccc(C(=O)NCCCn4ccnc4)cc32)cc1
stdout: 9.36

stdin: Tell me the measured inhibition of NC(=O)Cc1ccccc1Oc1nccc(-c2c(-c3ccc(F)cc3)ncn2C2CCNCC2)n1 , please.
stdout: -1.59

stdin: Entry under review: Cc1nnc(-c2ccc(C)c(-c3ccc(C(=O)NCc4ccc(Cl)cc4)cc3)c2)o1 . Reported inhibition?
stdout: 1.51

stdin: // returns reported inhibition for input c1ccc(-c2n[nH]cc2-c2ccnc(-c3ccc(OCCN4CCOCC4)cc3)c2)nc1
stdout: 8.41

stdin: Could you tell me which inhibition is on file for COc1cc(Nc2ncc3c(C)nc(-c4cccc(Oc5ccccc5)c4)n3n2)cc(OC)c1OC ?
stdout: 0.81

stdin: # get_value(readout='inhibition', item= COc1cc(N2CCN(C(C)C)CC2)ccc1Nc1nc(Nc2ccc(F)cc2C(=O)NC[C@@H](O)CO)c2cc[nH]c2n1 )
stdout: 7.71

stdin: Given CCS(=O)(=O)c1ccc(OC)c(Nc2ncc(-c3cccc(-c4ccccc4F)c3)o2)c1 , state its recorded inhibition.
stdout: 6.62

stdin: // inhibition lookup, key: CN(c1ccc(NC(=O)Nc2c(Cl)cccc2Cl)cc1)c1ccnc(Nc2cccc(CS(C)(=O)=O)c2)n1
stdout: 2.33

stdin: Which measured inhibition value corresponds to NC(=O)c1ccc(Oc2nccc(-c3c(-c4ccc(F)cc4)ncn3C3CCNCC3)n2)cc1 ?
stdout: 4.25

stdin: Any idea what inhibition was measured for COc1cc(C)c(N(C)C(=O)CN(C)C)cc1Nc1nc(Nc2cccc(F)c2C(N)=O)c2cc[nH]c2n1 ?
stdout: 0.99

stdin: # get_value(readout='inhibition', item= COc1ccc2ncn(-c3cc(O[C@H](C)c4ccccc4Cl)c(C(N)=O)s3)c2c1 )
stdout: 7.75

stdin: Form field: reported inhibition of Fc1ccc(-c2ncn(C3CCNCC3)c2-c2ccnc(Oc3ccc(F)c(F)c3)n2)cc1
stdout: 2.5

Values from ChEMBL document CHEMBL1961873
